- EXPERIMENT_SUMMARY: non-covalent RecA intein splicing inhibitors, dose response, biochemical, cell-free, fluorescence, secondary screen (AID 449750)
The source made the active and inactive calls. The rule behind the calls is not given here.
Labels: YES (active), NO (inactive)

INSERT INTO assay_data (compound, label) VALUES
  ('O=C1c2cc(F)ccc2-n2c1nc1ccccc1c2=O', 'NO'),
  ('CC1=NN(c2ccccc2)C(=O)C1', 'YES'),
  ('CN1CCN(c2ccc([N+](=O)[O-])c3no[n+]([O-])c23)CC1', 'NO'),
  ('O=C(CCl)N(c1ccccc1)c1ccccc1', 'YES'),
  ('Cc1cccc(S(=O)(=O)C(C#N)c2nc3ccccc3nc2N2CCCC2)c1 (stereo not drawn)', 'NO'),
  ('CC(=O)Oc1ccc2ccccc2c1C(NC(=O)Cc1ccccc1)c1ccc(Cl)cc1 (stereo not drawn)', 'YES'),
  ('CCOc1cc(C2C(C#N)=C(N)Oc3n[nH]c(-c4ccccc4)c32)ccc1O (stereo not drawn)', 'YES'),
  ('Cc1ccccc1CS(=O)(=O)c1snnc1C', 'NO'),
  ('CC1=NNC(=O)C1C(c1ccccc1)C1C(=O)NN=C1C (stereo not drawn)', 'YES'),
  ('CC(C)c1nnc(NC(=O)c2nc(S(=O)(=O)Cc3ccc(F)cc3)ncc2Cl)s1', 'NO'),
  ('O=c1[nH]c(Nc2ccccc2)cc2cc(Br)ccc12', 'YES'),
  ('CCO/C=C1/C(=O)N(C)C(=O)c2cc(OC)ccc21', 'NO'),
  ('CCOc1ccc(-n2c(C)cc(C(=O)CCl)c2C)cc1', 'YES'),
  ('O=C(CSCc1ccc([N+](=O)[O-])cc1)N/N=C/c1cccnc1', 'NO'),
  ('Cn1cnc([N+](=O)[O-])c1Sc1nnc(-c2cccnc2)n1C', 'NO'),
  ('C/C(CC(=O)Nc1ccccn1)=N\NC(=O)c1ccncc1', 'YES'),
  ('COc1ccc(C(=O)c2c(C(F)(F)F)oc3c2C(=O)c2ccccc2C3=O)cc1', 'YES'),
  ('Cn1cnc([N+](=O)[O-])c1Sc1ccc(C(C)(C)C)cc1', 'NO'),
  ('CN(C)c1ncc(C2=C(Cl)C(=O)C(N3CCCC3)=C(Cl)C2=O)s1', 'YES'),
  ('O=C(O)CN1C(=O)/C(=C\c2cccc(OCc3ccc(Cl)cc3Cl)c2)SC1=S', 'YES'),
  ('CCOC(=O)CC1=NN(c2ccccc2)C(=O)/C1=C\c1ccc(OC)cc1OC', 'YES'),
  ('Cc1ccc(-n2nc(C)c3c2OC(N)=C(C#N)C3c2ccoc2)cc1 (stereo not drawn)', 'YES'),
  ('CCOC(=O)c1nnn(-c2nonc2-n2cccc2)c1CCl', 'YES');
